Values from patent US7776893B2

- Tested on: C57BLKS db/db mice
- PROTOCOL: 10 days study: oral glucose tolerance, blood glucose 15 minutes after glucose application
- Type: in vivo
- EXPERIMENTAL_SETUP: 3 mg/kg oral once daily, fasted 24 h, 15 minutes after 1 g/kg oral glucose
MEASURED_ATTRIBUTE: Blood glucose (mg/dL)
Give just the numeric value; mg/dL need not be written.

// solved cases for Blood glucose follow
COc1cc2c(cc1OC)[C@@H]1CCCC[C@@H]1N=C2c1ccc(C(=O)c2ccccc2)cc1 = 362
COc1cc2c(cc1OC)[C@@H]1CCCC[C@@H]1N=C2c1ccc(OCC2CC2)c(OCC2CC2)c1 = 507

Input COc1cc2c(cc1OC)[C@@H]1CCCC[C@@H]1N=C2c1ccc(C(=O)O)cc1.Cl . Output Blood glucose: 506

Input CCn1nnc(-c2ccc(C3=N[C@H]4CCCC[C@H]4c4cc(OC)c(OC)cc43)cc2)n1 . Output Blood glucose: 437
